From: paper PMC6127842

Tgt: PTP1B (human recombinant) (Homo sapiens, UniProt P18031)
Procedure summary: PTP1B inhibitory activity assay with p-NPP as substrate
Conditions: p-NPP 4 mM, pH 6.0, 37 °C, 30 min; means ± SD, n = 3; NA = no activity >50 μM; read-out: IC50 against PTP1B
pIC50: −log10 of the molar value.
In this section we review reported pIC50 values for a set of compounds.
Value type: pIC50

- Entry smiles: "COc1cc([C@@H]2Oc3c(O)cc([C@H]4Oc5cc(O)cc(O)c5C(=O)[C@@H]4O)cc3[C@H]2CO)ccc1O"
  Value type: "pIC50"
  Result qualifier: "="
  Readout number: 5.25
- Entry smiles: "COc1cc([C@@H]2Oc3ccc([C@H]4Oc5cc(O)cc(O)c5C(=O)[C@@H]4O)cc3O[C@H]2CO)ccc1O"
  Value type: "pIC50"
  Result qualifier: "="
  Readout number: 5.86
- Entry smiles: "COc1cc([C@@H]2[C@H]3CO[C@@]4(O)C(=O)[C@@H]2C=C([C@H]2Oc5cc(O)cc(O)c5C(=O)[C@@H]2O)[C@@H]34)ccc1O"
  Value type: "pIC50"
  Result qualifier: "<"
  Readout number: 4.30
- Entry smiles: "COc1cc([C@H]2Oc3ccc([C@H]4Oc5cc(O)cc(O)c5C(=O)[C@@H]4O)cc3O[C@@H]2CO)ccc1O"
  Value type: "pIC50"
  Result qualifier: "="
  Readout number: 5.58
- Entry smiles: "COc1cc([C@H]2Oc3c(O)cc([C@H]4Oc5cc(O)cc(O)c5C(=O)[C@@H]4O)cc3[C@@H]2CO)ccc1O"
  Value type: "pIC50"
  Result qualifier: "="
  Readout number: 4.62
- Entry smiles: "COc1cc([C@@H]2Oc3c(O)ccc([C@H]4Oc5cc(O)cc(O)c5C(=O)[C@@H]4O)c3[C@H]2CO)ccc1O"
  Value type: "pIC50"
  Result qualifier: "="
  Readout number: 5.18

====

Tgt: PTP1B (human recombinant) (Homo sapiens, UniProt P18031)
Sequence (P18031 1-435): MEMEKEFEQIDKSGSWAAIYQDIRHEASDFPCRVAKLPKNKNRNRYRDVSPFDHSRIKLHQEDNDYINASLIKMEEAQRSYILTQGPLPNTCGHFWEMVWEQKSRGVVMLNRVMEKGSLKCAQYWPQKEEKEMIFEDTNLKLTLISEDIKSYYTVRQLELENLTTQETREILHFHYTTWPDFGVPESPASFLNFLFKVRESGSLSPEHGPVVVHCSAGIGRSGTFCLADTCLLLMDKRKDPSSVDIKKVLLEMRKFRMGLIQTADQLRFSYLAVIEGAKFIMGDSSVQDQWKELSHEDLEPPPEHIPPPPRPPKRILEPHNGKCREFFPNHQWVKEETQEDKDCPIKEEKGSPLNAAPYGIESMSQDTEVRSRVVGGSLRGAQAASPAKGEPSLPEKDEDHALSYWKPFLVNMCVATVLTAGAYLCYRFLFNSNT
Procedure summary: PTP1B inhibitory activity assay with p-NPP as substrate
Conditions: p-NPP 4 mM, pH 6.0, 37 °C, 30 min; means ± SD, n = 3; NA = no activity >50 μM; read-out: IC50 against PTP1B
Value type: IC50 (µM)

- Molecule: "COc1cc(C2C(C(=O)O)C=C(C3Oc4cc(O)cc(O)c4C(=O)C3O)C3C(=O)OCC32)ccc1O (centres unmarked)"
  Value type: "IC50"
  Units: "µM"
  Result qualifier: "="
  Readout number: 17.4
- Molecule: "COc1cc([C@@H]2Oc3cc([C@H]4Oc5cc(O)cc(O)c5C(=O)[C@@H]4O)ccc3O[C@H]2CO)ccc1O"
  Value type: "IC50"
  Units: "µM"
  Result qualifier: "="
  Readout number: 5.65
- Molecule: "COc1cc([C@@H]2Oc3c(O)cc(-c4oc5cc(O)cc(O)c5c(=O)c4O)cc3[C@H]2CO)ccc1O [Compound 8, Dehydrosilychristin A]"
  Value type: "IC50"
  Units: "µM"
  Result qualifier: "="
  Readout number: 7.18
- Molecule: "COc1cc([C@H]2Oc3cc([C@H]4Oc5cc(O)cc(O)c5C(=O)[C@@H]4O)ccc3O[C@@H]2CO)ccc1O"
  Value type: "IC50"
  Units: "µM"
  Result qualifier: "="
  Readout number: 1.54
- Molecule: "COc1cc(C2C3C=C(c4oc5cc(O)cc(O)c5c(=O)c4O)C4C2COC4(O)C3=O)ccc1O (centres unmarked) [Compound 10, Dehydrosilydianin]"
  Value type: "IC50"
  Units: "µM"
  Result qualifier: ">"
  Readout number: 50
